Ref: patent US9321776B2

pIC50 by entry:
# Target System: PI3Kα (Homo sapiens, UniProt P42336)
# Sequence (P42336 whole entry): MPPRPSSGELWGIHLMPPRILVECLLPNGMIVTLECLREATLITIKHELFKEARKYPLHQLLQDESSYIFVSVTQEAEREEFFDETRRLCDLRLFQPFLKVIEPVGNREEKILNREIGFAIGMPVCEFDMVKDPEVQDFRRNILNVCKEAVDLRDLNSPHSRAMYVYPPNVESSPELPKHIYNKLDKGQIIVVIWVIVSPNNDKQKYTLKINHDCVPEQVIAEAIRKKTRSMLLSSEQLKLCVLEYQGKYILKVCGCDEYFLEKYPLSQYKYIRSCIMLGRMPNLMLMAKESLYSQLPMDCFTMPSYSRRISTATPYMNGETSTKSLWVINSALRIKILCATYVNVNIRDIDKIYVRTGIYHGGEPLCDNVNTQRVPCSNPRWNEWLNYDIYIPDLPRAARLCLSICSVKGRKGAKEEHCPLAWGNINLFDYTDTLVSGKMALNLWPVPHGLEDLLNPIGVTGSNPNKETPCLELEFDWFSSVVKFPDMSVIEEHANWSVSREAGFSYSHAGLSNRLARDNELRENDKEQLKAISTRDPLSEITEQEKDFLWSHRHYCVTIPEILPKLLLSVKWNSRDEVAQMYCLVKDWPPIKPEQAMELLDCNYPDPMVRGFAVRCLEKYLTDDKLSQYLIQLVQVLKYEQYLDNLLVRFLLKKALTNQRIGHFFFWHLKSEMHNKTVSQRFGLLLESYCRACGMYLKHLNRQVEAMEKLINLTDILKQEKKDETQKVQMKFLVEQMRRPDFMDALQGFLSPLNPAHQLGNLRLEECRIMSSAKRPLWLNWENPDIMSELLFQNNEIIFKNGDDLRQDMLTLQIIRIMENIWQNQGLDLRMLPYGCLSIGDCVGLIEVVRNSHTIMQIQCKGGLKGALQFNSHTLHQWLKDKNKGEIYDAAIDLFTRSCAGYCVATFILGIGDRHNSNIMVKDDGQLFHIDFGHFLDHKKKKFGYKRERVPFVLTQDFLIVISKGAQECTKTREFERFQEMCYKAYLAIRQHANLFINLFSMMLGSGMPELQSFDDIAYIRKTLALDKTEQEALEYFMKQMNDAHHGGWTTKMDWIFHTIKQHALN
# Method: PI3K enzyme inhibitory activity in the cell free assay (ADP-Glo Kinase Assay)
# Condition Description: human recombinant PI3Kα, ATP 50 μM; read-out: PI3K alpha inhibition
pIC50: −log10 of the molar value. Counter-ions that a name gives are not always drawn.

Check out these entries, answers already filled in.
Molecule | Assay Readout | Result
CC(c1oc(=O)c2ccccc2c1-c1cccc(N(C)C)c1)n1nc(-c2cc(O)cc(F)c2)c2c(N)ncnc21 (stereo not drawn) [Example 119] | pIC50 | < 6.00
CC(c1oc(=O)c2ccccc2c1C1=CCN(CC2CC2)CC1)n1nc(-c2cc(O)cc(F)c2)c2c(N)ncnc21 (stereo not drawn) [Example 66, hydrochloride] | pIC50 | 6.00 to 8.00

Reported pIC50 of CC(c1oc(=O)c2ccccc2c1-c1ccc(CN2CCN(C)CC2)s1)n1nc(-c2cc(O)cc(F)c2)c2c(N)ncnc21 (stereo not drawn) [Example 135, dihydrochloride] : 6.00 to 8.00

====

# Target System: PI3Kα (Homo sapiens, UniProt P42336)
# Method: PI3K enzyme inhibitory activity in the cell free assay (ADP-Glo Kinase Assay)
# Condition Description: human recombinant PI3Kα, ATP 50 μM; read-out: PI3K alpha inhibition
Counter-ions that a name gives are not always drawn.
Assay Readout: IC50

Worked set:
Compound | IC50
CC(c1oc(=O)c2ccccc2c1C1=CCN(C)CC1)n1nc(-c2cncc(O)c2)c2c(N)ncnc21 (stereo not shown) [Example 175, hydrochloride] | 10 to 1000 nM
CC(c1oc(=O)c2ccccc2c1-c1cncs1)n1nc(-c2cc(O)cc(F)c2)c2c(N)ncnc21 (stereo not shown) [Example 120] | 10 to 1000 nM
CC(c1oc(=O)c2ccccc2c1-c1ccc(CN2CCCCC2)s1)n1nc(-c2cc(O)cc(F)c2)c2c(N)ncnc21 (stereo not shown) [Example 68, hydrochloride] | 10 to 1000 nM

Lookup result for CC(c1oc(=O)c2ccc(F)cc2c1-c1ccccc1)n1nc(-c2cc(O)cc(F)c2)c2c(N)ncnc21 (stereo not shown) [Example 165] ; measured IC50: > 1000 nM

====

# IC50 listing for each entry below
# Target System: PI3Kβ (Homo sapiens, UniProt P42338)
# Construct: purchased Millipore Ltd (Billerica, Mass.)
# Sequence (P42338 whole entry): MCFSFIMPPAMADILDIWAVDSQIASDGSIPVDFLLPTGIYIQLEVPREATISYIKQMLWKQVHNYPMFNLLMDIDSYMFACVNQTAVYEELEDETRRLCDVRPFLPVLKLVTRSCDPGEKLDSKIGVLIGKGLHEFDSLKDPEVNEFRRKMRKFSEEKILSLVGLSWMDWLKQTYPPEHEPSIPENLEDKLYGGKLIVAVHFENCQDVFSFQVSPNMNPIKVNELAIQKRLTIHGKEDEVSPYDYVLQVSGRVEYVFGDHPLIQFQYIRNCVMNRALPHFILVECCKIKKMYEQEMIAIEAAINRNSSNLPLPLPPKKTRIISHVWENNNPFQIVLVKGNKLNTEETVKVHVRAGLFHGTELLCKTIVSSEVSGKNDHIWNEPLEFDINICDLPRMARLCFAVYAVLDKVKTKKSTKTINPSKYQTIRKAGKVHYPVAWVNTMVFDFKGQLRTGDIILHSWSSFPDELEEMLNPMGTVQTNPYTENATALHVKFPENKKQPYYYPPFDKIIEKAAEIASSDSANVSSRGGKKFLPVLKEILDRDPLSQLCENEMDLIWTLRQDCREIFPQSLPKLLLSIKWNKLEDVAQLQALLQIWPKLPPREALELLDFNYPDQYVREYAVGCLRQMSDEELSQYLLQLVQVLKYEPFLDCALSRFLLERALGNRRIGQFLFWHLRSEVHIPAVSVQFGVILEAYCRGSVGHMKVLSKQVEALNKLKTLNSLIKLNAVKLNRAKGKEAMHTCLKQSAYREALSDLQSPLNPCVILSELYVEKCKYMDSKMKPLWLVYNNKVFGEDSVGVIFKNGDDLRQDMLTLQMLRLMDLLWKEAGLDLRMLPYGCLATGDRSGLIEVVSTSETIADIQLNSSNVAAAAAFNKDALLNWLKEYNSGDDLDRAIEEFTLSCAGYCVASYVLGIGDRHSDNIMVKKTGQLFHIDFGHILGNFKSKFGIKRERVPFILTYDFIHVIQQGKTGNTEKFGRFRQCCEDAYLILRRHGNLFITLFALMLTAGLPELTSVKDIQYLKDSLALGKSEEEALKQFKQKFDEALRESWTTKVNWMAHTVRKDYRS
# Method: PI3K enzyme inhibitory activity in the cell free assay (ADP-Glo Kinase Assay)
# Type: biochemical
# Condition Description: human recombinant PI3Kβ, ATP 100 μM; read-out: PI3K beta inhibition
Where a name gives a salt, the structure may show the parent alone.

Worked examples follow.
Compound | Result
CC(c1oc(=O)c2ccccc2c1-c1ccccc1)n1nc2ncnc(N)c2c1-c1cc(O)cc(F)c1 (stereo not shown) | > 1 µM
CC(c1oc(=O)c2ccccc2c1C1=CCNCC1)n1nc(-c2cc(O)cc(C(F)(F)F)c2)c2c(N)ncnc21 (stereo not shown) [Example 153, formate] | 0.01 to 1 µM
CC(c1oc(=O)c2ccccc2c1-c1cncs1)n1nc(-c2cc(O)cc(F)c2)c2c(N)ncnc21 (stereo not shown) | 0.01 to 1 µM
CC(c1oc(=O)c2ccccc2c1C1=CCNCC1)n1nc(-c2cc(O)cc(Cl)c2)c2c(N)ncnc21 (stereo not shown) [Example 152, formate] | 0.01 to 1 µM
CC(=O)N1CC=C(c2c(C(C)n3nc(-c4cncc(O)c4)c4c(N)ncnc43)oc(=O)c3ccccc23)CC1 (stereo not shown) | 0.01 to 1 µM

IC50 reported for this compound CC(NC(=O)c1c(N)nn2cccnc12)c1oc(=O)c2ccccc2c1-c1ccccc1 (stereo not shown) : 0.01 to 1 µM

Lab book: IC50 of `Cc1cccc(-c2c(Cn3cnc4c(N)ncnc43)oc(=O)c3ccccc23)c1` noted as > 1 µM

====

Listed here are compounds together with their documented IC50.
# Target System: PI3Kδ (Homo sapiens, UniProt O00329)
# Method: PI3K enzyme inhibitory activity in the cell free assay (ADP-Glo Kinase Assay)
# Condition Description: human recombinant PI3Kδ, ATP 80 μM; read-out: PI3K delta inhibition
Counter-ions that a name gives are not always drawn.

Solved cases (3 shown):
Compound | Result
CC(Nc1ncnc(N)c1C#N)c1oc(=O)c2ccccc2c1-c1cn[nH]c1 (stereo not shown) [Example 123, hydrochloride] | 10 to 1000 nM
CC(c1oc(=O)c2ccccc2c1C1=CCN(C)CC1)n1nc(-c2cc(O)cc(C(F)(F)F)c2)c2c(N)ncnc21 (stereo not shown) [Example 155, formate] | 10 to 1000 nM
CC(Nc1ncnc2[nH]cnc12)c1oc(=O)c2ccccc2c1-c1cncs1 (stereo not shown) | < 10 nM

Please look at the following compound next.
get_value(item= CC(c1oc(=O)c2ccccc2c1-c1ccccc1)n1nc(I)c2c(N)ncnc21 (stereo not shown) [Int D2] , readout=IC50) returns < 10 nM

====

Measured IC50, listed per entry.
# Target System: PI3Kδ (Homo sapiens, UniProt O00329)
# Method: PI3K enzyme inhibitory activity in the cell free assay (ADP-Glo Kinase Assay)
# Condition Description: human recombinant PI3Kδ, ATP 80 μM; read-out: PI3K delta inhibition
Where a name gives a salt, the structure may show the parent alone.

Compound | Assay Readout | Result
CC(c1oc(=O)c2ccccc2c1-c1cccc(N(C)C)c1)n1nc(-c2cc(O)cc(F)c2)c2c(N)ncnc21 (stereo not drawn) | IC50 | 0.01 to 1 µM
Nc1ncnc2c1c(-c1ccc3[nH]ncc3c1)nn2Cc1oc(=O)c2ccccc2c1-c1ccccc1 | IC50 | 0.01 to 1 µM
CC(c1oc(=O)c2ccccc2c1-c1ccccc1)n1nc(C(F)(F)F)c2c(N)ncnc21 (stereo not drawn) | IC50 | 0.01 to 1 µM
CC(c1oc(=O)c2ccccc2c1-c1ccc(CN2CCNCC2)cc1)n1nc(-c2cc(O)cc(F)c2)c2c(N)ncnc21 (stereo not drawn) [Example 125, dihydrochloride] | IC50 | 0.01 to 1 µM
CC(c1oc(=O)c2ccccc2c1-c1cncs1)n1ncc2c(N)ncnc21 (stereo not drawn) | IC50 | 0.01 to 1 µM

In the following, a different compound is considered.
Item: CC(c1oc(=O)c2ccccc2c1-c1ccccc1)n1nc2ncnc(N)c2c1-c1cc(O)cc(F)c1 (stereo not drawn) | IC50: 0.01 to 1 µM

====

pIC50: recorded values
# Target System: UniProt:O00329
# Sequence (O00329 1-1044): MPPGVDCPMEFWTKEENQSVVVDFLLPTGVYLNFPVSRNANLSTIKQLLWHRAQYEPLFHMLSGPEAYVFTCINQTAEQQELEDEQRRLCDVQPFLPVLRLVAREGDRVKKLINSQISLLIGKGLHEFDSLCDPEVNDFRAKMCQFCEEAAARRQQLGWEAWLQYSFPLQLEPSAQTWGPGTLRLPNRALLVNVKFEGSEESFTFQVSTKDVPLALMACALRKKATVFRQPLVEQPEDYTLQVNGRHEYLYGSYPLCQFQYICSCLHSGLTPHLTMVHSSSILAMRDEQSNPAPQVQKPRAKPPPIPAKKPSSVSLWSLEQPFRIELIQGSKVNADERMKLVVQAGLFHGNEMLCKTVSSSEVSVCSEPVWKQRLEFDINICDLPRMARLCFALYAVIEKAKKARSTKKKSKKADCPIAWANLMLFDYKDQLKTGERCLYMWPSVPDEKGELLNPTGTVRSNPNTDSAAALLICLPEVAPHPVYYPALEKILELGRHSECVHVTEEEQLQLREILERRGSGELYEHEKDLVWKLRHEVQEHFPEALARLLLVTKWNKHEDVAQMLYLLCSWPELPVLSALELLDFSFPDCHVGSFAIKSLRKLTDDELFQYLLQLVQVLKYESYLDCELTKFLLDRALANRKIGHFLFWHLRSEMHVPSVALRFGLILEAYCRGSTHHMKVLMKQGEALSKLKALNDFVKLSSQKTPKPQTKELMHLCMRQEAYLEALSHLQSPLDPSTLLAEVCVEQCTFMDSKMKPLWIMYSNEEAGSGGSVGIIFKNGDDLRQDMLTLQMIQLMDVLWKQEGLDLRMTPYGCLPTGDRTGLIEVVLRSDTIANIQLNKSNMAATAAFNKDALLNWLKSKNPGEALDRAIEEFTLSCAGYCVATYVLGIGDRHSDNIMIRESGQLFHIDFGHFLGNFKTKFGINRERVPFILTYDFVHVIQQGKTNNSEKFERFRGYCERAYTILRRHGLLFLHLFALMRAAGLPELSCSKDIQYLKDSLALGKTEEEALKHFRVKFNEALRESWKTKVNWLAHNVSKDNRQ
# Method: PI3K enzyme inhibitory activity in the cell free assay (ADP-Glo Kinase Assay)
# Condition Description: human recombinant PI3Kδ, ATP 80 μM; read-out: PI3K delta inhibition
pIC50: −log10 of the molar value. Counter-ions that a name gives are not always drawn.

Consider the worked cases shown below.
Molecule | Assay Readout | Result
Cc1ncc(-c2nn(C(C)c3oc(=O)c4ccccc4c3-c3ccccc3)c3ncnc(N)c23)cc1O (centres unmarked) | pIC50 | > 8.00
CC(c1oc(=O)c2ccccc2c1C1=CCCN(C2CCN(C)CC2)C1)n1nc(-c2cc(O)cc(F)c2)c2c(N)ncnc21 (centres unmarked) [Example 172, dihydrochloride] | pIC50 | 6.00 to 8.00
Nc1ncnc2c1c(-c1ccc3cn[nH]c3c1)nn2Cc1oc(=O)c2ccccc2c1-c1ccccc1 | pIC50 | 6.00 to 8.00
CC(Nc1ncnc(N)c1C#N)c1oc(=O)c2ccccc2c1-c1ccc(CN2CCOCC2)s1 (centres unmarked) [Example 82, hydrochloride] | pIC50 | > 8.00
CC(c1oc(=O)c2ccccc2c1-c1ccc(CN2CCN(C)CC2)cc1)n1nc(-c2cc(O)cc(F)c2)c2c(N)ncnc21 (centres unmarked) [Example 139, dihydrochloride] | pIC50 | > 8.00

So for CC(c1oc(=O)c2ccccc2c1-c1ccc(CN2CCCCC2)cc1)n1nc(-c2cc(O)cc(F)c2)c2c(N)ncnc21 (centres unmarked) [Example 141, hydrochloride] , the logged pIC50 turned out to be > 8.00

For CC(Nc1ncnc2[nH]cnc12)c1oc(=O)c2ccccc2c1-c1ccc(CN2CCOCC2)s1 (centres unmarked) the molecule record lists pIC50 as > 8.00

The reported pIC50 of the molecule `Nc1ncnc2c1c(-c1cc(O)cc(F)c1)nn2Cc1oc(=O)c2ccccc2c1-c1ccccc1` was > 8.00

Field pIC50 (entry CC(c1oc(=O)c2ccccc2c1C1=CCN(C2CN(CC3CC3)C2)CC1)n1nc(-c2cc(O)cc(F)c2)c2c(N)ncnc21 (centres unmarked) [Example 157, dihydrochloride] ) reads > 8.00

// sample CC(c1oc(=O)c2ccccc2c1C1=CC2CCC(C1)N2C)n1nc(-c2cc(O)cc(F)c2)c2c(N)ncnc21 (centres unmarked) [Example 92, hydrochloride] , its pIC50 was 6.00 to 8.00

The recorded pIC50 for CC(c1oc(=O)c2ccccc2c1-c1ccccn1)n1nc(-c2cc(O)cc(F)c2)c2c(N)ncnc21 (centres unmarked) [Example 170, hydrochloride] is > 8.00

Record CC(c1oc(=O)c2ccccc2c1C1=CCC(N)CC1)n1nc(-c2cc(O)cc(F)c2)c2c(N)ncnc21 (centres unmarked) [Example 103, hydrochloride] , field pIC50: > 8.00

So for `Nc1ncnc2c1c(-c1ccc(O)c(F)c1)nn2Cc1oc(=O)c2ccccc2c1-c1ccccc1` , the logged pIC50 turned out to be 6.00 to 8.00

Just so you know, measured pIC50 for CC(c1oc(=O)c2ccccc2c1-c1cncs1)n1nc(-c2cc(O)cc(F)c2)c2c(N)ncnc21 (centres unmarked) came out at > 8.00
